- Tested on: MX-1 cells
- Assay Explanation: Inhibition of cell proliferation (GI50, CellTiter-Glo) in MX-1 cells
- Format: cell-based
- Measurement Setup: Homo sapiens, MX1, 48 h, read-out: GI50 in Cancer Cells MX1
compounds and their reported GI50
Recorded Endpoint: GI50

>>> result("COc1cc(Nc2nc(SC)nc3c2COC3)cc(OC)c1")
"27 nM"
>>> result("COc1ccc(OC)c(Nc2nc(SC)nc3c2CCC3)c1")
"200 nM"
>>> result("COc1cc(Nc2ncnc3c2CCC3)cc(OC)c1")
"5000 nM"
>>> result("COc1ccc(N(C)c2nc(SC)nc3c2CCC3)cc1")
"50 nM"
>>> result("COc1cc(Nc2nc([S+](C)[O-])nc3c2CCC3)cc(OC)c1 (stereo not drawn)")
"600 nM"
>>> result("COc1ccc(OC)c(Nc2ncnc3c2CCC3)c1")
"890 nM"
